Measured inhibition at 4 µM of individual entries
# Target Of Assay: serotonin receptor (5HT3) (Mus musculus, UniProt P23979)
# Construct: Full-length cDNAs for mosquito (Anopheles gambiae) odorant receptor; expressed in transfected cells
# Sequence (P23979 24-489): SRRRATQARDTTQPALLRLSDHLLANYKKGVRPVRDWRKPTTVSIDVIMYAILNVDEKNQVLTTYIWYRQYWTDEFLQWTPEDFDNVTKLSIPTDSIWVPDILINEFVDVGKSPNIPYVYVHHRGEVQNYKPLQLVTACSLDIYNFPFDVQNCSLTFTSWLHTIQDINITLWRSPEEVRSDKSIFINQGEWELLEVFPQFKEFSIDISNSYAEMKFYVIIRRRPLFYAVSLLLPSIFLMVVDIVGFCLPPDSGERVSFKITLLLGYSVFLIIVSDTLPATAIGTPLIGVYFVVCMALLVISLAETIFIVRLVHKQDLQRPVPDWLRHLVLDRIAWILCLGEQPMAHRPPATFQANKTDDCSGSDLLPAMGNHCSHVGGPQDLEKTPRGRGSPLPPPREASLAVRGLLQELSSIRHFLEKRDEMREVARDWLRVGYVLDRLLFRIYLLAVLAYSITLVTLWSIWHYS
# Test Name: Ca2+-imaging of stable Flip-In T-Rex cell line 5HT3
# Type: cell-based
# Stated Conditions: compound applied at 4 μM; read-out: Percent Inhibition 5HT3

Record excerpt, results attached:
O=C(Cc1cccc(F)c1)N1CCOC(COCc2c(Cl)cccc2Cl)C1 (stereo not shown) :: < 25%
Cc1ccc(-c2nnc(SCCCC(=O)N3CCN(C(=O)c4cccc(F)c4)C(C)C3)n2-c2ccc(C)cc2)cc1 (stereo not shown) :: 26 to 50%
COCCNC(=O)c1ccc(CSc2nnc(-c3ccc(C)cc3)n2-c2ccccc2F)cc1 :: 26 to 50%

Q. Which inhibition at 4 µM value is on record for Cc1ccc(-n2nc(C)c(CCC(=O)N3CCc4ccccc4C3)c2C)cc1Cl ?
A. < 25%
